Values compiled from paper PMC11784145.

assay: Solubility limit, turbidimetric assay; format: physicochemical; settings: pH 6.5, replicate 3; upper limit 200 µM
readoutLabel: Sol 3 (solubility limit)

compound	Sol 3 (solubility limit)
CC(=NOCc1ccccc1Br)c1c(C)cc(=O)n(O)c1O [Compound 1718]	> 200 µM
CC(=NOCc1cccc(F)c1)c1c(C)cc(=O)n(O)c1O [Compound 1618]	> 200 µM
CC(=NOCc1ccc(C(F)(F)F)cc1)c1c(C)cc(=O)n(O)c1O [Compound 1235]	> 200 µM

// switching to the query compound
Quick note, Sol 3 (solubility limit) for CC(=NOCc1ccc(Br)cc1)c1c(C)cc(=O)n(O)c1O [Compound 1717] landed at 50 µM

====

Assay: Parallel artificial membrane permeability assay (PAMPA)
Type: in vitro ADME
Details: pH 7.4
Description: Compound Papp values were determined by normalizing the experimental compound absorbance to the compounds’ absorbances at equilibrium, membrane porosity, buffer volume, and time (s). Two or more replicate assays were obtained on separate days for each pH.
Avg Papp (PAMPA) reference
Please don't drop the unit; write it after the number.

Examples from the recorded data:
smilesData	Avg Papp (PAMPA)
CC(=NOCc1ccc(Cl)cc1)c1c(C)cc(=O)n(O)c1O	1.69 ×10⁻⁶ cm/s
CC(=NOCc1ccc(OCc2ccccc2)cc1)c1c(C)cc(=O)n(O)c1O	5.42 ×10⁻⁶ cm/s
CC(=NOCc1ccccc1C)c1c(C)cc(=O)n(O)c1O	4.73 ×10⁻⁶ cm/s
CC(=NOCc1ccc(Br)cc1)c1c(C)cc(=O)n(O)c1O	1.61 ×10⁻⁶ cm/s
CC(=NOCc1ccc(F)c(F)c1)c1c(C)cc(=O)n(O)c1O	0.95 ×10⁻⁶ cm/s
CC(=NOCc1ccc(OCc2ccc3ccccc3c2)cc1)c1c(C)cc(=O)n(O)c1O	1.84 ×10⁻⁶ cm/s
CC(=NOCc1ccc(OCc2ccc(C(C)(C)C)cc2)cc1)c1c(C)cc(=O)n(O)c1O	2.97 ×10⁻⁶ cm/s
CC(=NOCc1cccc(Br)c1)c1c(C)cc(=O)n(O)c1O	4.53 ×10⁻⁶ cm/s
CC(=NOCc1ccc(C)cc1)c1c(C)cc(=O)n(O)c1O	1.44 ×10⁻⁶ cm/s
CC(=NOCc1ccc(C(F)(F)F)cc1)c1c(C)cc(=O)n(O)c1O	3.34 ×10⁻⁶ cm/s

Quick note, Avg Papp (PAMPA) for COc1ccc(CON=C(C)c2c(C)cc(=O)n(O)c2O)cc1OC landed at 2.12 ×10⁻⁶ cm/s

Quick note, Avg Papp (PAMPA) for CC(=NOCc1ccccc1Br)c1c(C)cc(=O)n(O)c1O landed at 3.22 ×10⁻⁶ cm/s

Quick note, Avg Papp (PAMPA) for CC(=NOCc1cccc(Cl)c1)c1c(C)cc(=O)n(O)c1O landed at 2.9 ×10⁻⁶ cm/s

Quick note, Avg Papp (PAMPA) for CC(=NOCc1cccc(F)c1)c1c(C)cc(=O)n(O)c1O landed at 0.489 ×10⁻⁶ cm/s

====

experiment: Parallel artificial membrane permeability assay (PAMPA); type: in vitro ADME; conditions: pH 7.4, replicate 1
Kindly apply the following: fulfilled if Papp 1 (PAMPA) is less than 3 ×10⁻⁶ cm/s, not fulfilled in every other case.

Consider the following illustrative entries.
smilesData	category
CC(=NOCc1cccc(C)c1)c1c(C)cc(=O)n(O)c1O	fulfilled
CC(=NOCc1ccccc1Br)c1c(C)cc(=O)n(O)c1O	not fulfilled
CC(=NOCc1cccc(F)c1)c1c(C)cc(=O)n(O)c1O	fulfilled
CC(=NOCc1ccc(OCc2ccccc2)cc1)c1c(C)cc(=O)n(O)c1O	fulfilled
CC(=NOCc1cccc(Cl)c1)c1c(C)cc(=O)n(O)c1O	fulfilled
COc1ccc(CON=C(C)c2c(C)cc(=O)n(O)c2O)cc1OC	fulfilled

Enquiry: Identify whether the compound CC(=NOCc1ccc(F)cc1F)c1c(C)cc(=O)n(O)c1O records Papp 1 (PAMPA) below 3 ×10⁻⁶ cm/s.
Return: fulfilled

Enquiry: Identify whether the compound CC(=NOCc1ccc(OCc2ccc(C(C)(C)C)cc2)cc1)c1c(C)cc(=O)n(O)c1O records Papp 1 (PAMPA) below 3 ×10⁻⁶ cm/s.
Return: not fulfilled
